Measured LC50 (concentration killing 50% of cells) of individual entries
Test system: NCI-H322M
assay: NCI human tumor cell panel
Type: cell-based
conditionDetails: read-out: Log10 LC50 (converted)
Text: Considering the diversity of tumors in terms of cell type, morphology, growth rate and other cellular characteristics, the U.S. National Cancer Institute (NCI) has developed a "disease-oriented" approach to antitumor activity screening (M.R. Boyd, in "Principle of Practice of Oncology" J.T. Devita, S. Hellman, S.A. Rosenberg (Eds.) Vol. 3, PPO Update, No. 10, 1989). […] The cytotoxic activity of the present selenophene compounds have been measured utilizing two different assays or screens. […]

Examples with their reported LC50 (concentration killing 50% of cells) follow.
{"chemicalSmiles": "O=Cc1ccc(-c2ccc(-c3cccs3)[se]2)s1", "testValue": "> 100 µM"}
{"chemicalSmiles": "O=Cc1ccc(-c2ccc(-c3ccc[se]3)[se]2)[se]1", "testValue": "60.3 µM"}
{"chemicalSmiles": "O=Cc1ccc(-c2ccc(-c3ccc(C=O)s3)[se]2)s1", "testValue": "> 100 µM"}
{"chemicalSmiles": "OCc1ccc(-c2ccc(-c3cccs3)[se]2)s1", "testValue": "> 100 µM"}
{"chemicalSmiles": "OCc1ccc(-c2ccc(-c3ccc(CO)[se]3)s2)[se]1", "testValue": "> 100 µM"}
{"chemicalSmiles": "OCc1ccc(-c2ccc(-c3ccc[se]3)s2)[se]1", "testValue": "> 100 µM"}
{"chemicalSmiles": "OCc1ccc(-c2ccc(-c3ccc(CO)[se]3)[se]2)[se]1", "testValue": "52.5 µM"}
{"chemicalSmiles": "O=Cc1ccc(-c2ccc(-c3ccc(C=O)[se]3)s2)s1", "testValue": "> 100 µM"}
{"chemicalSmiles": "OCc1ccc(-c2ccc(-c3ccc(CO)s3)[se]2)s1", "testValue": "> 100 µM"}
{"chemicalSmiles": "O=Cc1ccc(-c2ccc(-c3ccc(C=O)[se]3)[se]2)[se]1", "testValue": "> 100 µM"}

The reported value for "OCc1ccc(-c2ccc(-c3ccc[se]3)[se]2)[se]1" in terms of LC50 (concentration killing 50% of cells) is 47.9 µM

The reported value for "OCc1ccc(-c2ccc(-c3ccc(CO)[se]3)s2)s1" in terms of LC50 (concentration killing 50% of cells) is > 100 µM

The reported value for "O=Cc1ccc(-c2ccc(-c3ccc(C=O)[se]3)s2)[se]1" in terms of LC50 (concentration killing 50% of cells) is > 100 µM
